- target.desc: CSTF2 (UniProt P33240)
- Sequence: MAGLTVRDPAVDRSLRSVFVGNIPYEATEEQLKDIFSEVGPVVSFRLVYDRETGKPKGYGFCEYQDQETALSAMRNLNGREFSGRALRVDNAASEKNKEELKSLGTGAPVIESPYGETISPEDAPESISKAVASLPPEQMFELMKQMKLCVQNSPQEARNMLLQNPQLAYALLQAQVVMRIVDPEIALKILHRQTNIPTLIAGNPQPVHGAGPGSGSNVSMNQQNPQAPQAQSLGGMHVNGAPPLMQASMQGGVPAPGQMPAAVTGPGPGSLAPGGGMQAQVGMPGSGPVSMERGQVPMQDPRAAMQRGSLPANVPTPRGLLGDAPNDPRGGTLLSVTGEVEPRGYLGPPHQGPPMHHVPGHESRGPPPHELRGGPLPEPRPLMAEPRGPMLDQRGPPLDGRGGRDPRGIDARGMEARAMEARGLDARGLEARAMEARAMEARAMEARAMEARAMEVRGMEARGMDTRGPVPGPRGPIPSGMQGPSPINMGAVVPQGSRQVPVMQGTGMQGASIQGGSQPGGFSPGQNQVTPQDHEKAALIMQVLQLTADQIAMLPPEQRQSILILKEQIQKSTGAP
- assay.explanation: EC50 of free RNA motif oligo competing protein binding to immobilised probe

seq	unit.label	EC50
UAUUUAU	nM	463
AAUAAA	nM	83.9
